test: Selectivity index, ratio of EC50 for cytotoxicity against human HepG2 cells to EC50 for antiparasitic activity against Nanoluciferase-tagged Cryptosporidium parvum infected in human HCT-8 cells assessed as inhibition of parasite growth; assay type: toxicity, cell-based; details: read-out: Ratio EC50
READOUT: selectivity ratio

> print(dat)
                               smiles.input  reported.measurement
1  COC(=O)[C@@]12Oc3cc4c(c(O)c3C(=O)C1=C(O)CC[C@@H]2O)[C@@H]1C=C[C@@]2(C4)C(=O)c3cc(C)cc(O)c3C(O)=C2C1=O                 > 4.8
2  COC(=O)[C@]12Oc3cc4c(c(O)c3C(=O)C1=C(O)CC[C@@H]2O)[C@@H]1C=C[C@@]2(C4)C(=O)c3cc(C)cc(O)c3C(O)=C2C1=O                 > 7.1

###

assay: Selectivity index, ratio of EC50 for cytotoxicity against human HepG2 cells to EC50 for antiparasitic activity against Trichomonas vaginalis Donne PRA-98; type: toxicity, cell-based; conditions: read-out: Ratio EC50
# selectivity ratio annotations
READOUT: selectivity ratio

COMPOUND	READOUT	REPORTED MEASUREMENT
COC(=O)[C@@]12Oc3cc4c(c(O)c3C(=O)C1=C(O)CC[C@@H]2O)[C@@H]1C=C[C@@]2(C4)C(=O)c3cc(C)cc(O)c3C(O)=C2C1=O [XANTHOQUINODIN A1]	selectivity ratio	> 6.4
COC(=O)[C@]12Oc3cc4c(c(O)c3C(=O)C1=C(O)CC[C@@H]2O)[C@@H]1C=C[C@@]2(C4)C(=O)c3cc(C)cc(O)c3C(O)=C2C1=O [XANTHOQUINODIN A2]	selectivity ratio	> 3.7

###

test system: Cryptosporidium parvum; experiment: Antiparasitic activity against Nanoluciferase-tagged Cryptosporidium parvum infected in human HCT-8 cells assessed as inhibition of parasite growth incubated for 48 hrs by NanoGlo luciferase reagent based assay; assay type: functional, organism-based; conditions: HCT-8, 48 h
pEC50: −log10 of the molar value.

COMPOUND	pEC50
CCOc1ccc2cc(-c3nn(CC4CCN(C)CC4)c4ncnc(N)c34)ccc2c1	5.96
COC(=O)[C@]1([C@@H](O)CCC(=O)O)CC(=O)c2c(cc3c(c2O)[C@@H]2C=C[C@@]4(C3)C(=O)c3cc(C)cc(O)c3C(=O)[C@]4(O)C2=O)O1	< 5.00
COC(=O)[C@@]12Oc3cc4c(c(O)c3C(=O)[C@]1(O)C(=O)CC[C@@H]2O)[C@@H]1C=C[C@@]2(C4)C(=O)c3cc(C)cc(O)c3C(=O)[C@]2(O)C1=O	< 5.00
Cc1cc(O)c2c(c1)[C@@H]([C@H]1c3cc(C)cc(O)c3C(=O)c3c(O)cc(O)cc31)c1cc(O)cc(O)c1C2=O	< 5.14
COC(=O)[C@]12Oc3cc4c(c(O)c3C(=O)C1=C(O)CC[C@@H]2O)[C@@H]1C=C[C@@]2(C4)C(=O)c3cc(C)cc(O)c3C(O)=C2C1=O [XANTHOQUINODIN A2]	5.46
Cc1cc(O)c2c(c1)[C@@H]([C@@H]1c3cc(C)cc(O)c3C(=O)c3c(O)cc(O)cc31)c1cc(O)cc(O)c1C2=O (relative stereo)	< 5.62
COC(=O)[C@]12Oc3c(c(O)cc4c3[C@@H]3C=C[C@@]5(C4)C(=O)c4cc(C)cc(O)c4C(=O)[C@]5(O)C3=O)C(=O)C1=C(O)CC[C@@H]2O	< 5.00
COC(=O)[C@]1([C@@H]2CCC(=O)O2)CC(=O)c2c(O)cc(C)cc2O1	< 4.40
COC(=O)[C@@]12Oc3cc4c(c(O)c3C(=O)C1=C(O)CC[C@@H]2O)[C@@H]1C=C[C@@]2(C4)C(=O)c3cc(C)cc(O)c3C(=O)[C@]2(O)C1=O	< 5.00
COC(=O)[C@@]12Oc3cc4c(c(O)c3C(=O)C1=C(O)CC[C@@H]2O)[C@@H]1C=C[C@@]2(C4)C(=O)c3cc(C)cc(O)c3C(O)=C2C1=O [XANTHOQUINODIN A1]	5.28
COC(=O)[C@]1([C@@H](O)CCC(=O)O)CC(=O)c2c(cc3c(c2O)[C@@H]2C=C[C@@]4(C3)C(=O)c3cc(C)cc(O)c3C(O)=C4C2=O)O1	< 5.00
COC(=O)[C@]1([C@@H]2CCC(=O)O2)CC(=O)c2c(cc3c(c2O)[C@@H]2C=C[C@@]4(C3)C(=O)c3cc(C)cc(O)c3C(=O)[C@]4(O)C2=O)O1	< 5.22

###

test: Selectivity index, ratio of EC50 for cytotoxicity against human HepG2 cells to EC50 for antimalarial activity against asynchronous Plasmodium falciparum Dd2 infected in human A+ erythrocytes; type: toxicity, cell-based; conditions: read-out: Ratio EC50
READOUT: selectivity ratio

> print(dat)
                                   compound            readout  qualifier.symbol  reported.measurement
1  Cc1cc(O)c2c(c1)[C@@H]([C@H]1c3cc(C)cc(O)c3C(=O)c3c(O)cc(O)cc31)c1cc(O)cc(O)c1C2=O  selectivity ratio                 =                   8.6
2  COC(=O)[C@]12Oc3cc4c(c(O)c3C(=O)C1=C(O)CC[C@@H]2O)[C@@H]1C=C[C@@]2(C4)C(=O)c3cc(C)cc(O)c3C(O)=C2C1=O  selectivity ratio                 >                    50
3  COC(=O)[C@@]12Oc3cc4c(c(O)c3C(=O)C1=C(O)CC[C@@H]2O)[C@@H]1C=C[C@@]2(C4)C(=O)c3cc(C)cc(O)c3C(O)=C2C1=O  selectivity ratio                 >                    86
4  Cc1cc(O)c2c(c1)[C@@H]([C@@H]1c3cc(C)cc(O)c3C(=O)c3c(O)cc(O)cc31)c1cc(O)cc(O)c1C2=O (relative stereo)  selectivity ratio                 =                   9.1

###

Parameter EC50 at 48 h: see the listing below.
assay: Cytotoxicity against human HepG2 cells incubated for 48 hrs by MTS based assay; type: toxicity, cell-based

COMPOUND	EC50 at 48 h
COC(=O)[C@]1([C@@H](O)CCC(=O)O)CC(=O)c2c(cc3c(c2O)[C@@H]2C=C[C@@]4(C3)C(=O)c3cc(C)cc(O)c3C(O)=C4C2=O)O1	> 25 µM
COC(=O)[C@@]12Oc3cc4c(c(O)c3C(=O)[C@]1(O)C(=O)CC[C@@H]2O)[C@@H]1C=C[C@@]2(C4)C(=O)c3cc(C)cc(O)c3C(=O)[C@]2(O)C1=O	> 25 µM
COC(=O)[C@]1([C@@H]2CCC(=O)O2)CC(=O)c2c(cc3c(c2O)[C@@H]2C=C[C@@]4(C3)C(=O)c3cc(C)cc(O)c3C(O)=C4C2=O)O1 [XANTHOQUINODIN A3]	> 25 µM
COC(=O)[C@]12Oc3cc4c(c(O)c3C(=O)C1=C(O)CC[C@@H]2O)[C@@H]1C=C[C@@]2(C4)C(=O)c3cc(C)cc(O)c3C(O)=C2C1=O [XANTHOQUINODIN A2]	> 25 µM
Cc1cc(O)c2c(c1)[C@@H]([C@H]1c3cc(C)cc(O)c3C(=O)c3c(O)cc(O)cc31)c1cc(O)cc(O)c1C2=O	13.8 µM
Cc1cc(O)c2c(c1)[C@@H]([C@@H]1c3cc(C)cc(O)c3C(=O)c3c(O)cc(O)cc31)c1cc(O)cc(O)c1C2=O (relative stereo)	10.2 µM
COC(=O)[C@@]12Oc3cc4c(c(O)c3C(=O)C1=C(O)CC[C@@H]2O)[C@@H]1C=C[C@@]2(C4)C(=O)c3cc(C)cc(O)c3C(O)=C2C1=O [XANTHOQUINODIN A1]	> 25 µM
COC(=O)[C@@]12Oc3cc4c(c(O)c3C(=O)C1=C(O)CC[C@@H]2O)[C@@H]1C=C[C@@]2(C4)C(=O)c3cc(C)cc(O)c3C(=O)[C@]2(O)C1=O	> 25 µM
COC(=O)[C@]1([C@@H]2CCC(=O)O2)CC(=O)c2c(O)cc(C)cc2O1	> 25 µM
COC(=O)[C@]12Oc3c(c(O)cc4c3[C@@H]3C=C[C@@]5(C4)C(=O)c4cc(C)cc(O)c4C(=O)[C@]5(O)C3=O)C(=O)C1=C(O)CC[C@@H]2O	> 25 µM
COC(=O)[C@]1([C@@H](O)CCC(=O)O)CC(=O)c2c(cc3c(c2O)[C@@H]2C=C[C@@]4(C3)C(=O)c3cc(C)cc(O)c3C(=O)[C@]4(O)C2=O)O1	> 25 µM
COC(=O)[C@]1([C@@H]2CCC(=O)O2)CC(=O)c2c(cc3c(c2O)[C@@H]2C=C[C@@]4(C3)C(=O)c3cc(C)cc(O)c3C(=O)[C@]4(O)C2=O)O1	> 25 µM

Source: ChEMBL document CHEMBL5321249
